Cited source: patent US12606816B2

EXPERIMENTAL SYSTEM: HIV pMHC binding to anti-HIV TCR
EXPERIMENTAL CONDITIONS: read-out: ELISA | IC50 | uM
ASSAY ENDPOINT: IC50
The reply must contain the numeric value and, after it, the unit.

Value of measured IC50 for the entry GGAFCVDTKPGLVCFEGGGGS[PEG4]Lys(biotin)- NH2 : 112 µM

----------
Tested on: MAGE-A3 TCR
EXPERIMENTAL CONDITIONS: read-out: ELISA | EC50 | uM
So basically: is EC50 under 0.2 µM? Then yes. Not under? Then no.

Incoming: Input VRTWFEKFPELVGGGGS[PEG4]Lys(biotin)-NH2 ; condition: EC50 strictly below 0.2 µM. Does it hold?
Outgoing: no

Incoming: Input GGESCQSVYDSSFCYDGGGGS[PEG4]Lys(biotin)- NH2 ; condition: EC50 strictly below 0.2 µM. Does it hold?
Outgoing: yes

Incoming: Input GGNQCWEVYDQEFCSLGGGGS[PEG4]Lys(biotin)- NH2 ; condition: EC50 strictly below 0.2 µM. Does it hold?
Outgoing: yes

Incoming: Input GGCSWIFDGLRYFSKCGGGGS[PEG4]Lys(biotin)- NH2 ; condition: EC50 strictly below 0.2 µM. Does it hold?
Outgoing: yes

Incoming: Input GGSLCSLVYDQDFCESGGGGS[PEG4]Lys(biotin)- NH2 ; condition: EC50 strictly below 0.2 µM. Does it hold?
Outgoing: yes

Incoming: Input GGNACEMTYDHTFCDPGGGGS[PEG4]Lys(biotin)- NH2 ; condition: EC50 strictly below 0.2 µM. Does it hold?
Outgoing: yes
